target: S1P1 (Homo sapiens); construct: host or cells: CHO-K1; experiment: S1P1 mediated inhibition of forskolin induced cAMP (PathHunter CHO-K1 EDG1 cells); type: cell-based
pEC50: −log10 of the molar value.
Please mark True if the recorded pEC50 is equal to or greater than 10, and False if it falls below.

Tell me whether pEC50 is at least 10 here: N#Cc1c(CCC(=O)O)[nH]c2ccc(OCc3ccc(C4CCCC4)c(C(F)(F)F)c3)cc12
False

Tell me whether pEC50 is at least 10 here: O=C(O)CCc1[nH]c2ccc(OCc3ccc(C4=CCCC4)c(C(F)(F)F)c3)cc2c1Cl
True

Tell me whether pEC50 is at least 10 here: O=C(O)CCc1[nH]c2ccc(OCc3ccc(OC4CCCC4)c(C(F)(F)F)c3)cc2c1F
True

Tell me whether pEC50 is at least 10 here: O=C(O)CCc1[nH]c2ccc(OCc3ccc(C4CCCCC4)c(C(F)(F)F)c3)cc2c1Cl
True

Tell me whether pEC50 is at least 10 here: O=C(O)CCn1cnc2cc(OCc3ccc(C4CCCC4)c(C(F)(F)F)c3)ccc21
False

Tell me whether pEC50 is at least 10 here: O=C(O)CCc1cc2cc(OCc3ccc(C4CCCC4)c(C(F)(F)F)c3)ccc2[nH]1
True

Tell me whether pEC50 is at least 10 here: O=C(O)CCc1cc2cc(OCc3ccc(OC4CCCC4)c(C(F)(F)F)c3)ccc2[nH]1
False

* * *

For each entry below, report its EC50 value.
target: S1P1 (Homo sapiens); construct: host or cells: CHO-K1; experiment: S1P1 mediated inhibition of forskolin induced cAMP (PathHunter CHO-K1 EDG1 cells); assay type: cell-based
Hi! Could you send only the number? It should be in nM, unit omitted.

Check S1P1 (Homo sapiens) data and give EC50 for CCc1c(CCC(=O)O)[nH]c2ccc(OCc3ccc(C4CCCC4)c(C(F)(F)F)c3)cc12 .
0.07

Check S1P1 (Homo sapiens) data and give EC50 for O=C(O)C[C@H]1CCc2c1[nH]c1ccc(OCc3ccc(C4CCCC4)c(C(F)(F)F)c3)cc21 [APD334, reference compound] .
2.07

Check S1P1 (Homo sapiens) data and give EC50 for O=C(O)CCc1[nH]c2ccc(OCc3ccc(C4CCOCC4)c(C(F)(F)F)c3)cc2c1Cl .
0.0021

Check S1P1 (Homo sapiens) data and give EC50 for O=C(O)CCc1[nH]c2ccc(OCc3cnc(C4CCCC4)c(C(F)(F)F)c3)cc2c1Cl .
0.0017

* * *

molecular target: S1P1 (Homo sapiens, UniProt P21453); construct: host or cells: CHO-K1; assay: S1P1 mediated β-arrestin reporter activation (PathHunter CHO-K1 EDG1 β-Arrestin Cell Line); assay type: cell-based; conditions: 90 minutes incubation at 37° C.
Sequence (P21453 whole entry): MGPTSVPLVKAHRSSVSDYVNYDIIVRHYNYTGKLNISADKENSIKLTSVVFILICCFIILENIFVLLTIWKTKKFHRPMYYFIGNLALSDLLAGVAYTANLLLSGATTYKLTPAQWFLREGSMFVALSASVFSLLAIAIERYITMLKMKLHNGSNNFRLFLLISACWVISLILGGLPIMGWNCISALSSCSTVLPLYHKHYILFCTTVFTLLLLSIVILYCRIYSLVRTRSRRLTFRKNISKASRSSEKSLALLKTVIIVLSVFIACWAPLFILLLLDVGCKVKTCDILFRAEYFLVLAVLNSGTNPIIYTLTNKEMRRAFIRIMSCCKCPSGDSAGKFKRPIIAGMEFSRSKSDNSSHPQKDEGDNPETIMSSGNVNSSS
Cut-off 2 nM on EC50: below means Yes, at or above means No.

Dear reviewer, please state whether O=C(O)CCc1[nH]c2ccc(OCc3ccc(C4CCOCC4)c(C(F)(F)F)c3)cc2c1Cl has EC50 strictly beneath 2 nM.
Yes

Dear reviewer, please state whether Cc1c(CCC(=O)O)[nH]c2ccc(OCc3ccc(C4CCOC4)c(C(F)(F)F)c3)cc12 (stereo not shown) has EC50 strictly beneath 2 nM.
Yes

Dear reviewer, please state whether O=C(O)CCc1cc2cc(OCc3ccc(C4CCCC4)c(C(F)(F)F)c3)ccc2[nH]1 has EC50 strictly beneath 2 nM.
Yes

Dear reviewer, please state whether O=C(O)CCc1[nH]c2ccc(OCc3ccc(C4CCOC4)c(C(F)(F)F)c3)cc2c1Cl (stereo not shown) has EC50 strictly beneath 2 nM.
Yes

Dear reviewer, please state whether O=C(O)CCc1[nH]c2ccc(OCc3cnc(C4CCCC4)c(C(F)(F)F)c3)cc2c1Cl has EC50 strictly beneath 2 nM.
Yes

Dear reviewer, please state whether O=C(O)CCc1cc2cc(OCc3cnc(C4CCCC4)c(C(F)(F)F)c3)ccc2[nH]1 has EC50 strictly beneath 2 nM.
No

Dear reviewer, please state whether Cc1c(CCC(=O)O)[nH]c2ccc(OCc3cnc(C4CCCC4)c(C(F)(F)F)c3)cc12 has EC50 strictly beneath 2 nM.
Yes

Dear reviewer, please state whether O=C(O)CCc1cc2cc(OCc3ccc(C4CCOCC4)c(C(F)(F)F)c3)ccc2[nH]1 has EC50 strictly beneath 2 nM.
No

Dear reviewer, please state whether N#Cc1c(CCC(=O)O)[nH]c2ccc(OCc3ccc(C4CCCC4)c(C(F)(F)F)c3)cc12 has EC50 strictly beneath 2 nM.
Yes

Dear reviewer, please state whether O=C(O)CCc1[nH]c2ccc(OCc3ccc(C4CCOC4)c(C(F)(F)F)c3)cc2c1F (stereo not shown) has EC50 strictly beneath 2 nM.
Yes

Dear reviewer, please state whether Cc1c(CCC(=O)O)[nH]c2ccc(OCc3ccc(C4CCOCC4)c(C(F)(F)F)c3)cc12 has EC50 strictly beneath 2 nM.
Yes

Dear reviewer, please state whether O=C(O)CCc1cc2cc(OCc3ccc(C4CCOC4)c(C(F)(F)F)c3)ccc2[nH]1 (stereo not shown) has EC50 strictly beneath 2 nM.
No

Dear reviewer, please state whether O=C(O)CCc1[nH]c2ccc(OCc3ccc(OC4CCCC4)c(C(F)(F)F)c3)cc2c1Cl has EC50 strictly beneath 2 nM.
Yes

Dear reviewer, please state whether O=C(O)CCc1[nH]c2ccc(OCc3ccc(C4=CCCC4)c(C(F)(F)F)c3)cc2c1Cl has EC50 strictly beneath 2 nM.
No

Dear reviewer, please state whether O=C(O)CCc1cc2cc(OCc3ccc(OC4CCCC4)c(C(F)(F)F)c3)ccc2[nH]1 has EC50 strictly beneath 2 nM.
Yes

Dear reviewer, please state whether CCc1c(CCC(=O)O)[nH]c2ccc(OCc3ccc(C4CCCC4)c(C(F)(F)F)c3)cc12 has EC50 strictly beneath 2 nM.
Yes

* * *

target: S1P1 (Homo sapiens, UniProt P21453); construct: host or cells: CHO-K1; assay: S1P1 mediated β-arrestin reporter activation (PathHunter CHO-K1 EDG1 β-Arrestin Cell Line); assay type: cell-based; conditions: 90 minutes incubation at 37° C.
For each entry below, report its EC50 value.
Hi! Could you send only the number? It should be in nM, unit omitted.

Consider the compound O=C(O)CCc1[nH]c2ccc(OCc3ccc(C4CCCCC4)c(C(F)(F)F)c3)cc2c1Cl [Compound 23] . State its measured EC50.
3.82

Consider the compound O=C(O)CCc1[nH]c2ccc(OCc3cnc(C4CCCC4)c(C(F)(F)F)c3)cc2c1F [Compound 30] . State its measured EC50.
0.62

Consider the compound O=C(O)CCc1[nH]c2ccc(OCc3ccc(C4CCC4)c(C(F)(F)F)c3)cc2c1Cl [Compound 22] . State its measured EC50.
1.65

Consider the compound O=C(O)CCn1ccc2cc(OCc3ccc(C4CCCC4)c(C(F)(F)F)c3)ccc21 [Compound 12] . State its measured EC50.
1.96

Consider the compound O=C(O)CCc1[nH]c2ccc(OCc3ccc(OC4CCCC4)c(C(F)(F)F)c3)cc2c1F [Compound 39] . State its measured EC50.
0.76

Consider the compound O=C(O)CCc1cc2cc(OCc3ccc(N4CCCC4)c(C(F)(F)F)c3)ccc2[nH]1 [Compound 28] . State its measured EC50.
2.08

Consider the compound Cc1c(CCC(=O)O)[nH]c2ccc(OCc3ccc(OC4CCCC4)c(C(F)(F)F)c3)cc12 [Compound 38] . State its measured EC50.
1.11

Consider the compound O=C(O)CCc1cc2cc(OCc3ccc(C4CCCC4)c(C(F)(F)F)c3)c(F)cc2[nH]1 [Compound 18] . State its measured EC50.
1.1

Consider the compound O=C(O)CCc1[nH]c2ccc(OCc3ccc(C4CCCC4)c(C(F)(F)F)c3)cc2c1F [Compound 14] . State its measured EC50.
1.86

Consider the compound O=C(O)CCc1[nH]c2ccc(OCc3ccc(C4CCOCC4)c(C(F)(F)F)c3)cc2c1F [Compound 36] . State its measured EC50.
0.85

* * *

biological target: S1P1 (Homo sapiens); construct: host or cells: CHO-K1; experiment: S1P1 receptor internalization (FACS, CHO-K1 EDG1 cells); format: cell-based; details: 2 hours incubation; read-out: S1P1 internalized EC50
PROPERTY: pEC50
By convention, pEC50 is the negative base-10 log of a molar concentration.

Consider the molecule O=C(O)CCc1cc2cc(OCc3ccc(C4CCCC4)c(C(F)(F)F)c3)c(F)cc2[nH]1 . State its measured pEC50.
9.16

Consider the molecule O=C(O)C[C@H]1CCc2c1[nH]c1ccc(OCc3ccc(C4CCCC4)c(C(F)(F)F)c3)cc21 [APD334, reference compound] . State its measured pEC50.
8.20

Consider the molecule CCc1c(CCC(=O)O)[nH]c2ccc(OCc3ccc(C4CCCC4)c(C(F)(F)F)c3)cc12 . State its measured pEC50.
9.49

Consider the molecule O=C(O)CCc1[nH]c2ccc(OCc3ccc(C4CCCC4)c(C(F)(F)F)c3)cc2c1F . State its measured pEC50.
9.85
